Test system: UACC-257 melanoma
assay.explanation: NCI-60 one-dose screen, 48 h
measurement.conditions: 10 µM unless noted
Compounds without any hit were thinned out: in the full panel of roughly 83,000, 20% have a hit. Calls of active or inactive are those of the source. Rule for the calls: active = growth percent below 10; inactive = the rest.
Outcome field: choose from yes (1) (active), no (0) (inactive)

>>> class("C1CNC2CCCC2C1 (centres undefined)")
"no (0)"

Could you kindly confirm the outcome this assay logged for c1ccc(-c2ccc3ccccc3[o+]2)cc1 ?
no (0)

---

# growth per record follows
Tested on: SK-MEL-28 melanoma
assay.explanation: NCI-60 one-dose screen, 48 h (100 = growth as untreated, 0 = no growth, -100 = all killed)
measurement.conditions: 10 µM unless noted
Compounds without any hit were thinned out: in the full panel of roughly 83,000, 20% have a hit.
Numbers only here, please. The scale is %.

Worked examples, 4 molecules total:
>>> endpoint_result("O=C1NC(=O)C(CN2C(=O)C3(c4ccccc42)[C@H](Cl)C(=O)N3c2ccccc2)C(=O)N1 (stereo partly drawn)")
76.8
>>> endpoint_result("CCC[CH2][Sn]1([CH2]CCC)[O]C(=O)c2cccc([N+](=O)[O-])c2C(=O)[O]1")
-93.3
>>> endpoint_result("CC(N)Cc1ccc(O)cc1 (stereo not drawn)")
124
>>> endpoint_result("CNC(=O)Oc1cc(C(C)C)ccc1Sc1ccc(C(C)C)cc1OC(=O)NC")
66.3

Give the reported growth for COc1cc[c]([Hg][Cl])cc1 (system: SK-MEL-28 melanoma).
20.7

Item: COc1ccc(C(=O)c2ccc([As]=O)cc2)cc1 (stereo not drawn) Test system: SK-MEL-28 melanoma Read-out: growth Value: ?
-87.1

---

Each record here notes measured growth.
Tested on: HL-60(TB) leukemia
assay.explanation: NCI-60 one-dose screen, 48 h (100 = growth as untreated, 0 = no growth, -100 = all killed)
measurement.conditions: 10 µM unless noted
This is part of a sample that, as a whole, favours compounds with a hit. Of some 83,000 tested, about 20% had one in any assay.
Field format: number, assumed %, no unit text.

Recorded results for 8 molecules are shown here.
>>> endpoint_result("O=C(NN1C(=O)c2cc(C(=O)O)c(C(=O)O)cc2C1=O)c1ccncc1")
109
>>> endpoint_result("COc1cc(/C=C/c2cc(/C=C/c3ccc(O)c(OC)c3)n(-c3ccccc3)n2)ccc1O")
-42.2
>>> endpoint_result("c1cncc(-c2csc(-c3c[nH]c4ccccc34)n2)c1")
91.9
>>> endpoint_result("Cc1cc(C)c(-c2c(O)c(Br)c(-c3c(C)cc(C)c(Br)c3C)c(O)c2Br)c(C)c1Br")
27.3
>>> endpoint_result("CC1(C)O[C@H]2OC3CCC(=O)CC3(O)[C@H]2O1 (stereo not given in full)")
102
>>> endpoint_result("O=C(Nc1ccc2ncnc(Nc3cccc(C(F)(F)F)c3)c2c1)c1cccs1")
47.9
>>> endpoint_result("N=C(N)c1ccc(S(N)(=O)=O)cc1")
94.9
>>> endpoint_result("Cc1ccc(N=Nc2c(N)nc(N)[nH]c2=O)cc1C")
97.3

Can you share its growth? I mean this molecule: Cc1ccc(C(F)(F)F)cc1N1CCN(C(=O)[C@H]2C[C@H]2c2ccc(C(F)(F)F)nc2)CC1
81.8

What value of measured growth is listed for C1=CC2=CC=C3C=CC=C4C(c5nc6c7ccccc7c7ccccc7c6[nH]5)=CC(=C1)C2C34 (stereo not given) ?
111

Which growth value is on record for c1ccc(-c2oc(-c3ccccc3)c(CN3CCCCC3)c2CN2CCCCC2)cc1 ?
27

Item CCOC(=O)C1=C(CCl)N(C)C(=O)NC1c1ccc2c(c1)OCO2 (stereo not given) has what recorded growth?
33.1

Form field: reported growth of Cc1ccc(C2=N[C@H]3CCC[C@@H]3N(c3ccccc3)C(C(Cl)Cl)=N2)cc1
93.2

Reported growth for COc1ccc(Cn2cc3c(c2-c2ccc(OC)cc2)CCc2cnoc2-3)cc1 : what is it?
-6.74

Recorded growth of Cc1ccc(C(=O)N2C/C(=C/c3ccc(F)cc3)C(=O)/C(=C/c3ccc(F)cc3)C2)cc1 , please.
81.6
